details: buffer; pH 7.4; 200.0 µM
Value type: solubility kinetic (µg/mL)

1) Cc1ccc2c(c1)/C(=C/c1ccccc1C)C(=O)N2 | 2.8
2) CNc1snc(C)c1C(=O)OCC(=O)NCc1ccccc1OC | 3.8
3) O=C1c2ccccc2C(O)(c2ccccc2)N1C1CC1 (stereo not given) | 38.3
4) CCOC(=O)C1(Cc2ccccc2)CCCN(Cc2ccncc2)C1 (stereo not given) | 31.3
5) CC1=C(C(=O)Nc2ccccc2)C(c2cccs2)NC(=O)N1 (stereo not given) | 41.3
6) O=S(=O)(NC1CCCCCC1)c1cccc(Cl)c1 | 40.6
7) CC1(C)C(c2ccccc2)=NC(c2ccc(Br)cc2)N1O (stereo not given) | 3.7
8) N#Cc1c(-c2ccc(Cl)cc2)c2c([nH]c1=O)-c1ccccc1OC2 | 7.6
9) Fc1ccccc1NC(=S)NCc1ccccc1 | 36.1
10) Cc1c(O)ccc(C(=O)CN2CCN(c3ccccc3)CC2)c1O | 12
11) C=CCOc1ccc2c(c1)c(=O)cc(C(=O)O)n2CC | 39.7
12) O=C(NCc1cccc(Cl)c1)C1CCCO1 (stereo not given) | 31.3
13) O=C(O)c1ccccc1OCCN1CCCC1=O | 36.5
14) O=C1NC2(CCCCC2)C(=O)N1c1cccc(Cl)c1 | 11.1
15) O=C(Nc1ccc2c(c1)CCC2)Nc1ccccc1F | 1.6
